Origin of measurements: paper PMC10397247

Molecular target: T1, 4H2745-bN
T1 chain: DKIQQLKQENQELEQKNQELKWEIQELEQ
Experiment: two-hybrid library CCNG1;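 also: natural log of median RNA to DNA barcode read ratio; higher means stronger binding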
PROPERTY NAME: interaction score

DKIQQLKQENQELEQKNQELKWEIQELEQ [4H2745-bN]    -0.754

P: DENQQLEQEIQELEQKIQELKWKNQELKQ [4H1072-bN]
Q: DKIQQLKQEIQELEQEIQELEWKNQELKQ [4H2568-bN]
R: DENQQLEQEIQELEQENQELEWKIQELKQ [4H1046-bN]
S: DKIQQLKQEIQELEQKNQELKWENQELEQ [4H2619-bN]
Number of binders to sort: 4. Sort criterion: interaction score, ascending. Return the labels ranked in the requested order, please.
Q, S, R, P
